Data credit: PubChem BioAssay (EPA / NIEHS)

Read-out: Fatty acid synthase (Homo sapiens)
Experiment: LTEA_HepaRG_FASN: Life Technologies and Expression Analysis (LTEA) Assay for Fatty Acid Synthase (FASN) using HepaRG (AID 2283448)
Details: mRNA level, 48 h; actives raise or lower the signal
The source made the active and inactive calls. Rule for the calls: active = hit-call score of the fitted dose curve at least 0.9, where 1 is the maximum; inactive = score below 0.9.
Answer with one of the outcomes 1 (active), 0 (inactive)

Record excerpt, results attached:
>>> class_label("Cc1[nH]nc2c1N=C(c1ccccc1Cl)c1cc([N+](=O)[O-])ccc1N2")
1
>>> class_label("CS(=O)(=O)c1ccc([C@@H](CC2CCCC2)C(=O)Nc2cnccn2)cc1Cl")
1
>>> class_label("O=C1NS(=O)(=O)c2ccccc21")
0
>>> class_label("CCCCC(CC)C(=O)O (stereo not given)")
0
>>> class_label("CN(Cc1cnc2nc(N)nc(N)c2n1)c1ccc(C(=O)N[C@@H](CCC(=O)O)C(=O)O)cc1")
1

In: Could you check what this test reported for CCC(C)c1ccccc1O (stereo not given) ?
Out: 0

In: Could you check what this test reported for CCCCC=O ?
Out: 0

In: Could you check what this test reported for OCC(CO)(CBr)CBr ?
Out: 0

In: Could you check what this test reported for CCCCCCCCCCCCCCC ?
Out: 0

In: Could you check what this test reported for CCCCCCCCCCCCOS(=O)(=O)O ?
Out: 1

* * *

Test: ATG_ERE_CIS: Attagene CIS-FACTORIAL HepG2 Assay for Estrogen Response Element (ERE) (AID 2282940)
Settings: HepG2 ERE cis-reporter, Attagene RNA transcript; actives raise or lower the signal
The source made the active and inactive calls. How the source made its calls: active means hit-call score of the fitted dose curve at least 0.9, where 1 is the maximum; inactive means score below 0.9.
Answer with one of the outcomes 1 (yes) = active, 0 (no) = inactive

Record excerpt, results attached:
>>> class_label("C[N+](C)(CCCNS(=O)(=O)CCC(F)(F)C(F)(F)C(F)(F)C(F)(F)C(F)(F)C(F)(F)F)CC(=O)[O-]")
"1 (yes)"
>>> class_label("COC(=O)C(F)(F)C(F)(F)C(F)(F)F")
"0 (no)"
>>> class_label("CC1=NN(c2ccccc2)C(=O)C1")
"0 (no)"
>>> class_label("FC(F)(F)N1C(F)(F)C(F)(F)OC(F)(F)C1(F)F")
"0 (no)"

In: Could you check what this test reported for CCO[Si](CCC1CCC2OC2C1)(OCC)OCC (configuration not stated) ?
Out: 0 (no)

In: Could you check what this test reported for FCOC(C(F)(F)F)C(F)(F)F ?
Out: 0 (no)

In: Could you check what this test reported for O=C(O)CN(CCCN(CC(=O)O)CC(=O)O)CC(=O)O ?
Out: 0 (no)

In: Could you check what this test reported for C=CC(=O)OCCN(CC)CC ?
Out: 0 (no)

In: Could you check what this test reported for CCCCCCOC(=O)c1ccc(O)cc1 ?
Out: 1 (yes)

In: Could you check what this test reported for c1ccc2c(c1)CCC2 ?
Out: 0 (no)

In: Could you check what this test reported for OCCN1CN(CCO)CN(CCO)C1 ?
Out: 0 (no)

In: Could you check what this test reported for O=C(O)c1cccc(C(=O)O)n1 ?
Out: 0 (no)

In: Could you check what this test reported for CN(CCO)S(=O)(=O)C(F)(F)C(F)(F)C(F)(F)C(F)(F)C(F)(F)C(F)(F)C(F)(F)C(F)(F)F ?
Out: 0 (no)

In: Could you check what this test reported for FC(F)(F)C1(F)C(F)(F)C(F)(F)C(F)(F)C1(F)F ?
Out: 0 (no)

In: Could you check what this test reported for CC1=CC(=O)c2ccccc2C1=O ?
Out: 0 (no)

In: Could you check what this test reported for O=S(=O)(O)C(F)(F)C(F)(F)C(F)(F)C(F)(F)C(F)(F)C(F)(F)C(F)(F)C(F)(F)C(F)(F)C(F)(F)F ?
Out: 0 (no)

In: Could you check what this test reported for Nc1ccc(O)c(C(=O)O)c1 ?
Out: 1 (yes)

In: Could you check what this test reported for O=C(OC(=O)C(F)(F)C(F)(F)F)C(F)(F)C(F)(F)F ?
Out: 0 (no)
